target: constitutive NO synthase (cNOS) (Rattus norvegicus); construct: cNOS was extracted from a rat cerebellum; from tissue; host or cells: rat cerebellum; test: Activity to inhibit constitutive NO synthase (cNOS) derived from rat cerebellum; conversion of [3H]-L-arginine to [3H]-L-citrulline; format: biochemical
Structures can show the parent of a compound that is named as a salt.
Please note: IC50 exactly at 100 nM is NOT MET. Only values below 100 nM get MET.

Examples with answers:
- Molecule: "NC1=N[C@@H](Cc2ccccc2)CCS1 [Example 10, hydrobromide]"
  Class label: "MET"
- Molecule: "NC1=N[C@H](Cc2ccccc2)CCS1 [Example 9, hydrobromide]"
  Class label: "NOT MET"
- Molecule: "CC1CC(OCc2ccccc2)N=C(N)S1 (stereo not shown) [Example 27]"
  Class label: "NOT MET"
- Molecule: "COC1CCSC(N)=N1 (stereo not shown) [Example 18]"
  Class label: "MET"
- Molecule: "CCOC1CCSC(N)=N1 (stereo not shown) [Example 21]"
  Class label: "MET"

Note: attention shifts to another entry.
Lab note: IC50 threshold 100 nM. Does this molecule come in strictly under it? CCOC1CC(C)SC(N)=N1 (stereo not shown) [Example 26]
MET
